Data provenance: patent US10457707B2

Assay: Cytotoxicity assay (CellTiter-Glo cell viability, 72 hours)
Assay type: cell-based
Details: African green monkey
*1 amine or outer side, *2 acyl side, *3 side chain or, on linkers, in order; H or OH if unused. Where a SMILES comes first, the peptide text is derived from it. Bridges are numbered along the chain shown (N, C = ends). [ ]: non-standard residue; d: D form. The star is where a group is joined. Piperazine(2S-CO,4-Me) = CN1CCN[C@H](C(=O)O)C1; NH(1,3-benzodioxol-5-yl) = c1cc2c(cc1N*)OCO2; Phe(3,5-F2) = N[C@@H](Cc1cc(F)cc(F)c1)C(=O)O; NH(4-OCF3-phenyl) = FC(F)(F)Oc1ccc(N*)cc1; Morpholine(3S-CO) = O=C(O)[C@@H]1COCCN1; Pro(4S-Me) = C[C@@H]1CN[C@H](C(=O)O)C1; NH(4-Cl-2-F-phenyl) = Fc1cc(Cl)ccc1N*; Pro(4R-Me) = C[C@H]1CN[C@H](C(=O)O)C1; Hyp = O=C(O)[C@@H]1C[C@@H](O)CN1; NMeT = CN[C@H](C(=O)O)[C@@H](C)O; Heptenoyl(2E) = CCCC/C=C/C(=O)*; aThr = C[C@H](O)[C@H](N)C(=O)O; Pip = O=C(O)[C@@H]1CCCCN1; X6 = Cc1cc(C)cc(N*)c1; CO = O=C([*:1])[*:2]

Compound	Relation symbol	IC50 at 72 h, µM
C[C@@H]1C[C@H]2C(=O)OC[C@H](NC(=O)[C@H](Cc3cc(F)cc(F)c3)NC(=O)Nc3ccc(Cl)cc3F)C(=O)N3CCC[C@H]3C(=O)N3CCN(C)C[C@H]3C(=O)N[C@@H](C)C(=O)N2C1 [Compound 330] ({NH(4-Cl-2-F-phenyl)-CO}-[Phe(3,5-F2)]SP[Piperazine(2S-CO,4-Me)]A[Pro(4R-Me)]; ester 2-C)	>	50
Cc1cc(C)cc(NC(=O)N[C@@H](Cc2cc(F)cc(F)c2)C(=O)N[C@@H]2C(=O)N3CCC[C@H]3C(=O)N3CCCC[C@H]3C(=O)N[C@@H](C)C(=O)N3C[C@H](C)C[C@H]3C(=O)O[C@H]2C)c1 [Compound 304] ({X6-CO}-[Phe(3,5-F2)][aThr]P[Pip]A[Pro(4R-Me)]; ester 2-C)	=	21.3
CCCC/C=C/C(=O)N[C@@H](Cc1cc(F)cc(F)c1)C(=O)N[C@@H]1C(=O)N2C[C@H](O)C[C@H]2C(=O)N2CCOC[C@H]2C(=O)N[C@@H](C)C(=O)N2C[C@H](C)C[C@H]2C(=O)O[C@H]1C [Compound 309] ({Heptenoyl(2E)}-[Phe(3,5-F2)][aThr][Hyp][Morpholine(3S-CO)]A[Pro(4R-Me)]; ester 2-C)	>	100
C[C@@H]1C[C@H]2C(=O)O[C@@H](C)[C@H](NC(=O)[C@H](Cc3cc(F)cc(F)c3)NC(=O)Nc3ccc(Cl)cc3F)C(=O)N3CCC[C@H]3C(=O)N3CCOC[C@H]3C(=O)N[C@@H](C)C(=O)N2C1 [Compound 314] ({NH(4-Cl-2-F-phenyl)-CO}-[Phe(3,5-F2)][aThr]P[Morpholine(3S-CO)]A[Pro(4R-Me)]; ester 2-C)	=	2.39
C[C@H]1C[C@H]2C(=O)O[C@@H](C)[C@H](NC(=O)[C@H](Cc3cc(F)cc(F)c3)NC(=O)Nc3ccc4c(c3)OCO4)C(=O)N3CCC[C@H]3C(=O)N3CCCC[C@H]3C(=O)N[C@@H](C)C(=O)N2C1 [Compound 196] ({NH(1,3-benzodioxol-5-yl)-CO}-[Phe(3,5-F2)][aThr]P[Pip]A[Pro(4S-Me)]; ester 2-C)	=	52.8
C[C@H]1C[C@H]2C(=O)O[C@@H](C)[C@H](NC(=O)[C@H](Cc3cc(F)cc(F)c3)NC(=O)Nc3ccc(OC(F)(F)F)cc3)C(=O)N3CCC[C@H]3C(=O)N(C)[C@@H]([C@@H](C)O)C(=O)N[C@@H](C)C(=O)N2C1 [Compound 36] ({NH(4-OCF3-phenyl)-CO}-[Phe(3,5-F2)][aThr]P[NMeT]A[Pro(4S-Me)]; ester 2-C)	=	25.4

----------
Tested on: Bacillus subtilis, ATCC 23857
Assay: Minimal inhibitory concentration assay (microbroth dilution)
Type: cell-based
Details: Bacillus subtilis, ATCC23857, read-out: Minimal Inhibitory Concentrations B. subtilis ATCC 23857
*1 amine or outer side, *2 acyl side, *3 side chain or, on linkers, in order; H or OH if unused. Where a SMILES comes first, the peptide text is derived from it. Bridges are numbered along the chain shown (N, C = ends). [ ]: non-standard residue; d: D form. The star is where a group is joined. Phe(3,5-F2) = N[C@@H](Cc1cc(F)cc(F)c1)C(=O)O; Pro(4R-Me) = C[C@H]1CN[C@H](C(=O)O)C1; Hyp = O=C(O)[C@@H]1C[C@@H](O)CN1; NH(4-Me-phenyl) = Cc1ccc(N*)cc1; aThr = C[C@H](O)[C@H](N)C(=O)O; Pip = O=C(O)[C@@H]1CCCCN1; CO = O=C([*:1])[*:2]
Reported MIC is given for each of the following compounds.

Compound	MIC
Cc1ccc(NC(=O)N[C@@H](Cc2cc(F)cc(F)c2)C(=O)N[C@H]2COC(=O)[C@@H]3C[C@@H](C)CN3C(=O)[C@H](C)NC(=O)C3CCCCN3C(=O)[C@@H]3C[C@@H](O)CN3C2=O)cc1 (stereo partly drawn)	0.313 µM
C[C@@H]1C[C@H]2C(=O)OC[C@H](NC(=O)[C@H](Cc3ccccc3)NC(=O)Nc3ccccc3Cl)C(=O)N3CCC[C@H]3C(=O)N3CCCC[C@H]3C(=O)N[C@@H](C)C(=O)N2C1	6.25 µM
Cc1ccc(NC(=O)N[C@@H](Cc2cc(F)cc(F)c2)C(=O)N[C@H]2COC(=O)C3C[C@H](C)CN3C(=O)[C@H](C)NC(=O)C3CCCCN3C(=O)C3CCCN3C2=O)cc1C (stereo partly drawn)	0.2 µM
C[C@@H]1C[C@H]2C(=O)OC[C@H](NC(=O)[C@H](Cc3ccccc3)NC(=O)Nc3ccc(Cl)cc3)C(=O)N3CCC[C@H]3C(=O)N3CCCC[C@H]3C(=O)N[C@@H](C)C(=O)N2C1	0.78 µM
Cc1ccc(NC(=O)N[C@@H](Cc2cc(F)cc(F)c2)C(=O)N[C@H]2COC(=O)[C@@H]3C[C@@H](C)CN3C(=O)[C@H](C)NC(=O)[C@@H]3CCCCN3C(=O)[C@@H]3CCCN3C2=O)cc1C	< 0.2 µM
Cc1ccc(NC(=O)N[C@@H](Cc2cc(F)cc(F)c2)C(=O)N[C@H]2COC(=O)[C@@H]3C[C@@H](C)CN3C(=O)[C@H](C)NC(=O)[C@@H]3CCCCN3C(=O)[C@@H]3CCCN3C2=O)cc1	2.2 µM
Cc1ccc(NC(=O)N[C@@H](Cc2ccccc2)C(=O)N[C@H]2COC(=O)C3C[C@H](C)CN3C(=O)[C@H](C)NC(=O)C3CCCCN3C(=O)C3CCCN3C2=O)cc1 (stereo partly drawn)	0.4 µM
Cc1ccc(NC(=O)N[C@@H](Cc2cc(F)cc(F)c2)C(=O)N[C@@H]2C(=O)N3C[C@H](O)C[C@H]3C(=O)N3CCCC[C@H]3C(=O)N[C@@H](C)C(=O)N3C[C@H](C)C[C@H]3C(=O)O[C@H]2C)cc1 [Compound 216] ({NH(4-Me-phenyl)-CO}-[Phe(3,5-F2)][aThr][Hyp][Pip]A[Pro(4R-Me)]; ester 2-C)	0.2 µM
Cc1ccc(NC(=O)N[C@@H](Cc2cc(F)cc(F)c2)C(=O)N[C@@H]2C(=O)N3CCC[C@H]3C(=O)N3CCCC[C@H]3C(=O)N[C@@H](C)C(=O)N3C[C@H](C)C[C@H]3C(=O)O[C@H]2C)cc1 [Compound 209] ({NH(4-Me-phenyl)-CO}-[Phe(3,5-F2)][aThr]P[Pip]A[Pro(4R-Me)]; ester 2-C)	0.05 µM

----------
Tested on: Bacillus subtilis, ATCC 23857
Test: Minimal inhibitory concentration assay (microbroth dilution)
Assay type: cell-based
Conditions: Bacillus subtilis, ATCC23857, read-out: Minimal Inhibitory Concentrations B. subtilis ATCC 23857
*1 amine or outer side, *2 acyl side, *3 side chain or, on linkers, in order; H or OH if unused. Where a SMILES comes first, the peptide text is derived from it. Bridges are numbered along the chain shown (N, C = ends). [ ]: non-standard residue; d: D form. The star is where a group is joined. ξ: configuration not given here. Phe(3,5-F2) = N[C@@H](Cc1cc(F)cc(F)c1)C(=O)O; NH(1-Me-indolin-5-yl) = CN1CCc2cc(N*)ccc21; Morpholine(3S-CO) = O=C(O)[C@@H]1COCCN1; Pro(4S-Me) = C[C@@H]1CN[C@H](C(=O)O)C1; Pro(4R-Me) = C[C@H]1CN[C@H](C(=O)O)C1; ξPro(4R-OH) = O=C(O)C1C[C@@H](O)CN1; NMeaThr = CN[C@H](C(=O)O)[C@H](C)O; ξPro(4R-Me) = C[C@H]1CNC(C(=O)O)C1; Hyp = O=C(O)[C@@H]1C[C@@H](O)CN1; NH(4-Me-phenyl) = Cc1ccc(N*)cc1; aThr = C[C@H](O)[C@H](N)C(=O)O; NMeA = CN[C@@H](C)C(=O)O; CO = O=C([*:1])[*:2]
Reported MIC is given for each of the following molecules.

Molecule	Study target	MIC
Cc1ccc(NC(=O)N[C@@H](Cc2cc(F)cc(F)c2)C(=O)N[C@@H]2C(=O)N3CCC[C@H]3C(=O)N(C)[C@@H]([C@H](C)O)C(=O)N[C@@H](C)C(=O)N3C[C@@H](C)C[C@H]3C(=O)O[C@H]2C)cc1 [Compound 202] ({NH(4-Me-phenyl)-CO}-[Phe(3,5-F2)][aThr]P[NMeaThr]A[Pro(4S-Me)]; ester 2-C)	Bacillus subtilis, ATCC 23857	0.195 µM
C[C@@H]1C[C@H]2C(=O)O[C@@H](C)[C@H](NC(=O)[C@H](Cc3cc(F)cc(F)c3)NC(=O)Nc3ccc4c(c3)CCN4C)C(=O)N3C[C@H](O)C[C@H]3C(=O)N3CCOC[C@H]3C(=O)N[C@@H](C)C(=O)N2C1 [Compound 315] ({NH(1-Me-indolin-5-yl)-CO}-[Phe(3,5-F2)][aThr][Hyp][Morpholine(3S-CO)]A[Pro(4R-Me)]; ester 2-C)	Bacillus subtilis, ATCC 23857	20 µM
Cc1ccc(NC(=O)N[C@@H](Cc2cc(F)cc(F)c2)C(=O)N[C@@H]2C(=O)N3C[C@H](O)CC3C(=O)N(C)[C@@H](C)C(=O)N[C@@H](C)C(=O)N3C[C@H](C)CC3C(=O)O[C@H]2C)cc1 (stereo partly drawn) [Compound 31] ({NH(4-Me-phenyl)-CO}-[Phe(3,5-F2)][aThr][ξPro(4R-OH)][NMeA]A[ξPro(4R-Me)]; ester 2-C)	Bacillus subtilis, ATCC 23857	0.39 µM
